The reported numbers originate from PubChem BioAssay AID493091.

# key: entry, value: inhibition
Biological target: Carboxy-terminal domain RNA polymerase II polypeptide A small phosphatase 1 (Homo sapiens)
Assay: Scp-1 phosphatase inhibitors, primary screen, biochemical, colorimetric, uHTS (AID 493091);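 also: plate controls were DMSO wells with enzyme for no effect and wells lacking enzyme for full effect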
Conditions: Recombinant Scp1, phosphopeptide, malachite green phosphate absorbance; at 20 µM; stronger effect = higher value
Out of some 340,000 compounds screened, about 3,000 (0.88%) were called active. Shown is part of a subset that was picked to be rich in actives.
value type: inhibition (%)

[[record]]
compound = "COc1cc(/C=C2/C(=O)NN(c3cccc(Cl)c3)C2=O)cc(Br)c1O"
value_type = "inhibition"
readout_value = 2.98

[[record]]
compound = "Cc1ccc(S(=O)(=O)/N=S(\\C)C(C)C)cc1 (stereo unspecified)"
value_type = "inhibition"
readout_value = -1

[[record]]
compound = "CCOC(=O)N1CCN(c2c(NCCN3CCN(c4ccccc4F)CC3)c(=O)c2=O)CC1"
value_type = "inhibition"
readout_value = -8.45

[[record]]
compound = "COc1ccc(Cc2nnc(SCC(=O)Nc3ccc(C)c(Cl)c3)[nH]c2=O)cc1"
value_type = "inhibition"
readout_value = 48

[[record]]
compound = "COc1cnn(-c2ccc([N+](=O)[O-])cc2)c(=O)c1Cl"
value_type = "inhibition"
readout_value = -3.84

[[record]]
compound = "O=[N+]([O-])c1ccc(N2CCOCC2)cc1"
value_type = "inhibition"
readout_value = -2.71


* * *

Biological target: Carboxy-terminal domain RNA polymerase II polypeptide A small phosphatase 1 (Homo sapiens)
Experiment: Scp-1 phosphatase inhibitors, primary screen, biochemical, colorimetric, uHTS (AID 493091);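 also: plate controls were DMSO wells with enzyme for no effect and wells lacking enzyme for full effect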
Details: Recombinant Scp1, phosphopeptide, malachite green phosphate absorbance; at 20 µM
In all, about 340,000 compounds went through this assay and about 3,000 (0.88%) were called active.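 The calls were made as follows: active = inhibition above about 50% at 20 µM (limit read from the data); inactive = the rest.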 Shown is part of a subset that was picked to be rich in actives.
Classes used: active, inactive

[[record]]
structure_notation = "COC(=O)c1cccc(NC(=O)c2cccc(N3C(=O)CCC3=O)c2)c1"
class_name = "inactive"

[[record]]
structure_notation = "O=C(Cc1ccc([N+](=O)[O-])cc1)N/N=C/c1ccco1"
class_name = "inactive"

[[record]]
structure_notation = "O=C1C(=O)N(c2ccccc2)c2ccccc21"
class_name = "inactive"

[[record]]
structure_notation = "O=C(N/N=C/c1ccco1)c1ccc(C(=O)N/N=C/c2ccco2)o1"
class_name = "active"

[[record]]
structure_notation = "Cc1cccc(NC(=O)c2cc(N3C(=O)CCC3=O)ccc2Cl)n1"
class_name = "inactive"

[[record]]
structure_notation = "O=C(N/N=C/c1ccco1)c1csc2c1CCCC2"
class_name = "inactive"


* * *

Entries and their measured inhibition follow.
Molecular target: Carboxy-terminal domain RNA polymerase II polypeptide A small phosphatase 1 (Homo sapiens) (UniProt Q9GZU7)
Sequence (Q9GZU7 76-261 limits assumed): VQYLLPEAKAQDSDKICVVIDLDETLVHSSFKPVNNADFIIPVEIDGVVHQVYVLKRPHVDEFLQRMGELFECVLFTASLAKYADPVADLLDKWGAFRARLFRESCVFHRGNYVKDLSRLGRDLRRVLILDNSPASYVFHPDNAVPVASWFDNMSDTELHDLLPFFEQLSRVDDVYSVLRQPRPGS
Test: Scp-1 phosphatase inhibitors, primary screen, biochemical, colorimetric, uHTS (AID 493091);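 also: plate controls were DMSO wells with enzyme for no effect and wells lacking enzyme for full effect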
Conditions: Recombinant Scp1, phosphopeptide, malachite green phosphate absorbance; at 20 µM; stronger effect = higher value
About 3,000 (0.88%) of roughly 340,000 compounds were called active. Shown is part of a subset that was picked to be rich in actives.
value type: inhibition (%)

[[record]]
molecule = "CN(CCOc1ccccc1)C(=O)c1cc(-c2ccco2)nc2ccccc12"
value_type = "inhibition"
readout_value = 49

[[record]]
molecule = "Cc1cccc(C)c1NC(=O)COC(=O)c1ccccc1O"
value_type = "inhibition"
readout_value = -5.49

[[record]]
molecule = "COC(=O)c1cc(OC)c(OC)cc1NC(=O)C1CCCO1 (stereo unspecified)"
value_type = "inhibition"
readout_value = -6.55

[[record]]
molecule = "COc1cc2c(cc1OC)C1C(=O)c3cc(OS(C)(=O)=O)c(OC)cc3C1N(C)C2=O (stereo unspecified)"
value_type = "inhibition"
readout_value = 7.12

[[record]]
molecule = "CN(C(=O)COC(=O)c1cc(-c2ccco2)nc2ccccc12)C1CCS(=O)(=O)C1 (stereo unspecified)"
value_type = "inhibition"
readout_value = 88.8

[[record]]
molecule = "O=C(Oc1ccc(-c2nc(-c3ccccn3)no2)cc1)c1ccccc1"
value_type = "inhibition"
readout_value = 7.66


* * *

Molecular target: Carboxy-terminal domain RNA polymerase II polypeptide A small phosphatase 1 (Homo sapiens) (UniProt Q9GZU7)
Test: Scp-1 phosphatase inhibitors, primary screen, biochemical, colorimetric, uHTS (AID 493091);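 also: plate controls were DMSO wells with enzyme for no effect and wells lacking enzyme for full effect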
Settings: Recombinant Scp1, phosphopeptide, malachite green phosphate absorbance; at 20 µM
Hit rate of the full screen: of about 340,000 compounds, about 3,000 (0.88%) were called active.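 The calls were made as follows: active = inhibition above about 50% at 20 µM (limit read from the data); inactive = the rest.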 Many of the other results were omitted from the sample, so actives are more common in it than they were. Non-standard residues stand in square brackets, D forms with d. Residues, ends and D or L forms follow the SMILES beside them. ξ: configuration not given here. ξM = CSCCC(N)C(=O)O
Outcomes: Yes (active), No (inactive)

[[record]]
molecule = "CC(=O)CSc1nc(CCc2ccccc2)c(C#N)c(=O)[nH]1"
class_name = "No"

[[record]]
molecule = "CC1CC(c2ccccc2)n2nc(NC(=O)c3cccs3)nc2N1 (centres undefined)"
class_name = "No"

[[record]]
molecule = "CCOC(=O)C1CCCN(C(=O)c2ccc(CS(=O)(=O)c3ccc(Br)cc3)o2)C1 (centres undefined)"
class_name = "No"

[[record]]
molecule = "CCCCCC(=O)Nc1ccc(S(=O)(=O)Nc2ccc(Cl)nn2)cc1"
class_name = "No"

[[record]]
molecule = "CN(C)C=NC(=O)c1cccn1-c1ncc(C(F)(F)F)cc1Cl"
class_name = "No"

[[record]]
molecule = "Cc1cc(C)nc(SCc2cn3c(C)cc(C)nc3n2)n1"
class_name = "No"

[[record]]
molecule = "Cc1nnc(CN(C)Cc2cn[nH]c2-c2ccc(-c3ccccc3)cc2)o1"
class_name = "No"

[[record]]
molecule = "COc1ccccc1NC(=O)c1ccc(N2CC3CC(C2)c2cccc(=O)n2C3)c(NC(=O)c2cccnc2)c1 (centres undefined)"
class_name = "No"

[[record]]
molecule = "CCOc1ccc(-c2nnn(CC(=O)N3CCN(c4ccc(OC)cc4)CC3)n2)cc1OCC"
class_name = "No"

[[record]]
molecule = "CC1CCCCC1NC(=O)c1cn(C)c2ccc(S(=O)(=O)N3CCOCC3)cc2c1=O (centres undefined)"
class_name = "No"

[[record]]
molecule = "C=C1c2cccc(OC)c2O[C@H](C(=O)OCC)[C@@H]1CCCCCC"
class_name = "Yes"

[[record]]
molecule = "CC(C)OCC(O)CN1CCN(C(c2ccccc2)c2ccccc2)CC1 (centres undefined)"
class_name = "No"

[[record]]
molecule = "Cc1ccc(C(=O)NNC(=O)c2cc3cc4ccccc4nc3s2)cc1"
class_name = "Yes"

[[record]]
molecule = "COc1ccc(OC)c(S(=O)(=O)NCCC(C)C)c1"
class_name = "No"

[[record]]
molecule = "Cc1ccc(S(=O)(=O)c2c[nH]c3ccc(Cl)cc3c2=O)cc1"
class_name = "No"

[[record]]
molecule = "COc1ccccc1OCCNC(=O)C(CCSC)NC(=O)COc1ccccc1 (centres undefined)"
class_name = "No"

[[record]]
molecule = "CCOC(=O)C1=C(NC(=S)NC(=O)c2ccccc2)c2ccccc2CC1(C)C"
class_name = "No"

[[record]]
molecule = "CCOC(=O)c1c(NC(=O)CNC2CCCc3ccccc32)sc(C(N)=O)c1C (centres undefined)"
class_name = "No"

[[record]]
molecule = "CCOC(=O)c1cnn(Cc2ccccc2Cl)c1N"
class_name = "No"

[[record]]
molecule = "O=c1c2ccccc2oc2nc(C3CCCCC3)n(Cc3ccco3)c(=O)c12"
class_name = "No"

[[record]]
molecule = "CC1(C)CC(N2CCN(C(c3ccccc3)c3ccccc3)CC2)=CC(=[N+]2CCCCC2)C1"
class_name = "Yes"

[[record]]
molecule = "COc1c(C(C)C)oc2cc3oc(=O)ccc3cc12"
class_name = "No"

[[record]]
molecule = "CCOC(=O)C(=Cc1ccccc1OC)C(=O)OCC"
class_name = "No"

[[record]]
molecule = "COc1ccc(N2CCN(C(=O)CSc3nnc4ncccn34)CC2)cc1"
class_name = "No"

[[record]]
molecule = "CC(C)CNC(=O)COC(=O)/C=C/c1ccco1"
class_name = "No"

[[record]]
molecule = "c1ccc(C(c2ccccc2)N2CCN(Cc3nnnn3C3CCCCC3)CC2)cc1"
class_name = "No"

[[record]]
molecule = "Cc1nnc(SCC(=O)Nn2cnnc2)s1"
class_name = "No"

[[record]]
molecule = "O=C(CSc1nc2ccccc2c(=O)[nH]1)Nc1nc(-c2ccc(Br)cc2)cs1"
class_name = "No"

[[record]]
molecule = "CSc1ccccc1NC(=O)c1cnc2sc(C)cn2c1=O"
class_name = "No"

[[record]]
molecule = "O=C(Nc1cccc(Br)c1)C1CC(=O)N(C2CCCC2)C1 (centres undefined)"
class_name = "No"

[[record]]
molecule = "Cc1nnc(SCC(=O)Nc2ccc(S(=O)(=O)Nc3ccc(Cl)nn3)cc2)s1"
class_name = "Yes"

[[record]]
molecule = "CCSC1=C(C#N)C(=O)n2c1cc1c2CCCC1"
class_name = "No"

[[record]]
molecule = "C#CCOCCOCCOCCNc1nc(N2CCN(C(=O)CCCCCCCCCCNC(=O)[C@H](CCCCN)n3cc(C)nn3)CC2)nc(N2CCN(C(=O)CCCCCCCCCCNC(=O)[C@H](CO)n3cc(CCCSC)nn3)CC2)n1"
class_name = "No"

[[record]]
molecule = "COc1ccc(S(=O)(=O)c2c[nH]c(=S)[nH]c2=O)cc1Cl"
class_name = "Yes"

[[record]]
molecule = "O=C(COC(=O)/C=C/c1ccc(Br)o1)Nc1cccc(S(=O)(=O)N2CCOCC2)c1"
class_name = "Yes"

[[record]]
molecule = "CC(C)CCN1CCN=C1N(C)C"
class_name = "No"

[[record]]
molecule = "Cc1ccc(C(=O)NNC(=O)c2ccc3c(c2)OCCO3)cc1"
class_name = "No"

[[record]]
molecule = "N#Cc1c(-c2cccs2)nc(SCC(=O)c2ccc(Br)cc2)[nH]c1=O"
class_name = "Yes"

[[record]]
molecule = "Cc1nnc(SCc2ccc(C(=O)c3ccc(Cl)cc3)o2)n1-c1ccccc1"
class_name = "No"

[[record]]
molecule = "Cn1c(N)c(C(=O)COC(=O)c2cccc(S(=O)(=O)N3CCOCC3)c2)c(=O)n(C)c1=O"
class_name = "No"

[[record]]
molecule = "COc1ccc(S(=O)(=O)N2CCN(C(=O)c3cc(C)oc3C)CC2)cc1"
class_name = "No"

[[record]]
molecule = "Cc1ccc(C(=O)NNc2ncnc3ccccc23)cc1"
class_name = "No"

[[record]]
molecule = "COc1ccc(Cc2nnc(NC(=O)Cc3cccs3)s2)cc1"
class_name = "Yes"

[[record]]
molecule = "COC(=O)CNC(=O)C(CCSC)NC(C)=O (centres undefined) (Ac-[ξM]-Gly-OMe)"
class_name = "Yes"

